B1: ALDH8A1 (parent)
chain: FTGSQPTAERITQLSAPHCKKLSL

variants of: B1; test: protein stability index of a GFP-peptide fusion (GPS, HEK-293T) (PSI 1-6); higher = more stable; details: c terminus: a fixed tail appended;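 also: lentivirally expressed fusions sorted by FACS into six bins by GFP to DsRed ratio, PSI derived from sequencing read proportions per bin multiplied by bin number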
Parameter protein stability index: see the listing below.

A8V
2.45
A16Q
2.1
C19I
1.66

Next variant, protein stability index to be filled in.
# protein stability index (variant: `S4T` ) is 2.69
